# System Tested: human Keap1 Kelch domain (Homo sapiens)
# Construct: human Keap1 Kelch domain (residue 321-609, UniProt Q14145); made in house; host or cells: Escherichia coli BL21 (DE3) pLysS, pRSET A vector
# Sequence (Q14145 321-609): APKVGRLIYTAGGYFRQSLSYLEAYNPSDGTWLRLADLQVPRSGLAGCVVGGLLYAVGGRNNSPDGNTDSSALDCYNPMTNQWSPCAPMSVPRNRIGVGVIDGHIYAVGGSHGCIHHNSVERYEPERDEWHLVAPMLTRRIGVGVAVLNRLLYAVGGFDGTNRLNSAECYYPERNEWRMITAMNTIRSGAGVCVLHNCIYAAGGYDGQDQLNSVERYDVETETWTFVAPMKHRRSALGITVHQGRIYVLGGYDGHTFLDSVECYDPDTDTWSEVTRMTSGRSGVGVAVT
# Procedure Details: Fluorescence polarization (FP) competition assay, Cy5-Nrf2 peptide probe
# Type: binding
# Test Parameters: heterologous competition FP; Keap1 Kelch 14 nM, Cy5-Nrf2 probe 3 nM, 4% DMSO; mean ± SEM
In plain terms, low Ki, meaning strictly below 0.1 µM, gives t, and everything else gives f.

Prompt line: Could you please tell me whether Ki recorded for O=C(O)CC(c1ccc2c(c1)OC(F)(F)O2)c1ccc2ccc(OCC(=O)NC3C=CCCC3)cc2c1 (stereo not shown) [4f] is less than 0.1 µM?
Response line: t

Prompt line: Find out if reported Ki for O=C(O)CC(c1ccc2c(c1)CCO2)c1ccc2ccc(OCC(=O)NC3CCCCC3)cc2c1 (stereo not shown) [3i] is less than 0.1 µM
Response line: t

Prompt line: Below 0.1 µM on Ki? Entry COc1ccc(C)c(C(CC(=O)O)c2ccc3ccc(OCC(=O)NC4CCCCC4)cc3c2)c1 (stereo not shown) [3m]
Response line: f

Prompt line: State whether 0.1 µM exceeds Ki recorded for CC1(NC(=O)COc2ccc3ccc(C(CC(=O)O)c4ccc5c(c4)OCO5)cc3c2)CCCCC1 (stereo not shown) [6f] .
Response line: f

Prompt line: hey, is Ki for CC(Oc1ccc2ccc(C(CC(=O)O)c3ccc4c(c3)OCO4)cc2c1)C(=O)NC1CCCCCC1 (stereo not shown) [7a] lower than 0.1 µM or not?
Response line: f

Prompt line: Problem: For the molecule Cc1cc2c(cc1C(CC(=O)O)c1ccc3ccc(OCC(=O)NC4C=CCCC4)cc3c1)OCCO2 (stereo not shown) [4i] , is Ki under 0.1 µM?
Response line: t

Prompt line: Does the reported Ki of the following molecule sit strictly below 0.1 µM? O=C(O)CC(c1ccc2c(c1)OCO2)c1ccc2ccc(OCC(=O)Nc3ccccc3)cc2c1 (stereo not shown) [6l]
Response line: f

Prompt line: Say whether its Ki is strictly beneath 0.1 µM. Entry: O=C(O)CC(c1ccc2c(c1)OCO2)c1ccc2ccc(OCC(=O)NC3CC=CCC3)cc2c1 (stereo not shown) [6a]
Response line: t

Prompt line: Lab note: confirm whether the reported Ki for this molecule is below 0.1 µM, equality not counting. molecule: O=C(O)CC(c1ccc2c(c1)OCO2)c1ccc2ccc(OCC(=O)N[C@H]3CC[C@@H](C(F)(F)F)CC3)cc2c1 (stereo partly shown) [6j]
Response line: t

Prompt line: Would you kindly verify if Ki of CCn1nnc2c(C)c(C(CC(=O)O)c3ccc4ccc(OCC(=O)NC5CCCCC5)cc4c3)ccc21 (stereo not shown) [3h] is strictly less than 0.1 µM?
Response line: t

Prompt line: Field: below-cutoff. Rule: recorded Ki strictly less than 0.1 µM. Subject: O=C(O)CC(c1ccc2c(c1)OCO2)c1ccc2ncc(OCC(=O)NC3CCCCCC3)cc2c1 (stereo not shown) [9a]
Response line: f

Prompt line: Quick check: does Cc1cc(C)c(C)c(NC(=O)COc2ccc3ccc(CCC(=O)O)cc3c2)c1C [1g] have Ki under 0.1 µM?
Response line: f

Prompt line: hey, is Ki for O=C(O)CC(c1ccc2ccc(OCC(=O)NC3CCCCCC3)cc2c1)c1cc2c(cc1Cl)OCO2 (stereo not shown) [2z] lower than 0.1 µM or not?
Response line: t

Prompt line: I'd appreciate it if you could check whether Cc1ccc(Cl)cc1C(CC(=O)O)c1ccc2ccc(OCC(=O)NC3CCCCCC3)cc2c1 (stereo not shown) [2v] has Ki smaller than 0.1 µM.
Response line: t

Prompt line: State whether 0.1 µM exceeds Ki recorded for O=C(O)CC(c1ccc2c(c1)OCCO2)c1ccc2ccc(OCC(=O)NC3CCCCC3)cc2c1 (stereo not shown) [3l] .
Response line: t

Prompt line: Find out if reported Ki for O=C(O)CCc1ccc2ccc(OCC(=O)NC3CCCCCC3)cc2c1 [1d] is less than 0.1 µM
Response line: f

Prompt line: Please determine if Cc1cc2c(cc1C(CC(=O)O)c1ccc3ccc(OCC(=O)NC4CCCCC4)cc3c1)OC(F)(F)O2 (stereo not shown) [3r] is below 0.1 µM in terms of Ki.
Response line: t

Prompt line: Lab note: confirm whether the reported Ki for this molecule is below 0.1 µM, equality not counting. molecule: Cc1cc2c(cc1C(CC(=O)O)c1ccc3ccc(OCC(=O)NC4CCCCCC4)cc3c1)OCO2 (stereo not shown) [2n]
Response line: t

Prompt line: Lab note: Ki threshold 0.1 µM. Does this molecule come in strictly under it? O=C(O)CCc1ccc2ccc(OCC(=O)NN3CCOCC3)cc2c1 [1c]
Response line: f

Prompt line: Does the reported Ki of COc1cc(C)c(C(CC(=O)O)c2ccc3ccc(OCC(=O)NC4CCCCC4)cc3c2)c(C)c1 (stereo not shown) [3c] stay below 0.1 µM?
Response line: f

Prompt line: Say whether its Ki is strictly beneath 0.1 µM. Entry: Cc1ccc(Cl)cc1C(CC(=O)O)c1ccc2ccc(OCC(=O)NC3CCCCC3)cc2c1 (stereo not shown) [3p]
Response line: f

Prompt line: Consider Cc1cc2c(cc1C(CC(=O)O)c1ccc3ccc(OCC(=O)NC4C=CCCC4)cc3c1)OC(F)(F)O2 (stereo not shown) [4l] . Does its Ki lie strictly below 0.1 µM?
Response line: t

Prompt line: # strict comparison: is reported Ki < 0.1 µM? input = O=C(O)CC(c1ccc2c(c1)OCO2)c1ccc2ccc(OCC(=O)NC3C=CCCC3)cc2c1 (stereo not shown) [4a]
Response line: t

Prompt line: State whether 0.1 µM exceeds Ki recorded for CC(C)CNC(=O)COc1ccc2ccc(C(CC(=O)O)c3ccc4c(c3)OCO4)cc2c1 (stereo not shown) [6c] .
Response line: f

Prompt line: Please check: Ki for O=C(O)CCc1ccc2ccc(OCC(=O)NC3CCOCC3)cc2c1 [1b] , strictly under 0.1 µM or not?
Response line: f

Prompt line: Decide: Ki of O=C(O)CC(c1ccc2c(c1)OCO2)c1ccc2ccc(OCC(=O)NC3CCCCCC3)nc2c1 (stereo not shown) [9b] strictly below 0.1 µM?
Response line: t

Prompt line: Threshold test, Ki < 0.1 µM: O=C(O)CC(c1ccc2c(c1)OCCO2)c1ccc2ccc(OCC(=O)NC3CCCCCC3)cc2c1 (stereo not shown) [2s]
Response line: t

Prompt line: Threshold test, Ki < 0.1 µM: Cc1cc2c(cc1C(CC(=O)O)c1ccc3ccc(OCC(=O)NC4CCCCCC4)cc3c1)OC(F)(F)O2 (stereo not shown) [2w]
Response line: t

Prompt line: Please determine if O=C(O)CC(c1ccc2c(c1)OCO2)c1cnc2ccc(OCC(=O)NC3CCCCCC3)cc2c1 (stereo not shown) [9c] is below 0.1 µM in terms of Ki.
Response line: t

Prompt line: Ki under 0.1 µM? Item: O=C(O)CC(c1ccc(Cl)cc1)c1ccc2ccc(OCC(=O)NC3CCCCCC3)cc2c1 (stereo not shown) [2c]
Response line: f

Prompt line: Does the reported Ki of the following molecule sit strictly below 0.1 µM? O=C(O)CC(c1ccc2c(c1)OCO2)c1ccc2ccc(OCC(=O)NC3CCC(F)(F)CC3)cc2c1 (stereo not shown) [6b]
Response line: t

Prompt line: Quick check: Ki of Cc1cc2c(cc1C(CC(=O)O)c1ccc3ccc(OCC(=O)NC4CCCCC4)cc3c1)OCO2 (stereo not shown) [3g] under 0.1 µM?
Response line: t
